Tested on: EPHB1
experimental_parameters: concentration: 1 μM, replicates: in singlicate; n = 1
Rule for this label: rule met means %Inh is less than 5%; rule not met means %Inh is at least 5%.

Examples with answers:
>  <smiles_code>
COc1ccc(S(=O)(=O)NC2CCN(c3cc(C)nc(Nc4cccc(C#N)c4)n3)CC2)cc1.O=C(O)C(F)(F)F

>  <target_of_assay>
EPHB1

>  <class>
rule not met

$$$$
>  <smiles_code>
Nc1nccc(-c2c(-c3ccc(F)cc3)ncn2C2CCN(CC(F)(F)F)CC2)n1

>  <target_of_assay>
EPHB1;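 also: KINOMEscan kinase panel screen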

>  <class>
rule met

$$$$

Q) I wonder whether COc1cc2c(cc1OCCN1CCN(C)CC1)ncc1c3ccc(C#N)cc3[nH]c21 has %Inh below 5%. Can you tell?
A) rule not met

Q) I wonder whether Fc1ccc(-c2nn3c(OCC(F)(F)F)cccc3c2-c2ccncc2)cc1 has %Inh below 5%. Can you tell?
A) rule not met

Q) I wonder whether O=c1cc(N2CCOCC2)nc2n(Cc3cccc(F)c3)ccn12 has %Inh below 5%. Can you tell?
A) rule met

Q) I wonder whether CN1c2ccc(CNc3ccc(F)cc3)cc2-c2c(cnn2C)S1(=O)=O has %Inh below 5%. Can you tell?
A) rule met

Q) I wonder whether O=C1Cc2cc(Nc3nc(NCc4cccc(S(=O)(=O)C(F)(F)F)c4)ncc3C(F)(F)F)ccc2N1 has %Inh below 5%. Can you tell?
A) rule met

Q) I wonder whether COc1cc2ncn(-c3cc(OCc4sccc4Cl)c(C(N)=O)s3)c2cc1OC has %Inh below 5%. Can you tell?
A) rule met
